Catalogue of koff values
Target: canine FcRn/B2M protein complex (canine FcRn ECD with C-terminal poly-His tag and canine Beta-2-Microglobulin) (canine)
Experiment: SPR Biacore T200, pH 6.0; biotinylated FcRn/B2M immobilized, Fc as analyte
Expressed in s⁻¹, but write only the number.

wild-type canine IgG-B Fc polypeptide (protein, not shown: small tags and cut ends) CPAPEMLGGPSVFIFPPKPKDTLLIARTPEVTCVVVDLDPEDPEVQISWFVDGKQMQTAKTQPREEQFNGTYRVVSVLPIGHQDWLKGKQFTCKVNNKALPSPIERTISKARGQAHQPSVYVLPPSREELSKNTVSLTCLIKDFFPPDIDVEWQSNGQQEPESKYRTTPPQLDEDGSYFLYSKLSVDKSRWQRGDTFICAVMHEALHNHYTQESLSHSPGK	0.122
variant canine IgG-B Fc polypeptide L(24)Y (protein, not shown: small tags and cut ends) CPAPEMLGGPSVFIFPPKPKDTLYIARTPEVTCVVVDLDPEDPEVQISWFVDGKQMQTAKTQPREEQFNGTYRVVSVLPIGHQDWLKGKQFTCKVNNKALPSPIERTISKARGQAHQPSVYVLPPSREELSKNTVSLTCLIKDFFPPDIDVEWQSNGQQEPESKYRTTPPQLDEDGSYFLYSKLSVDKSRWQRGDTFICAVMHEALHNHYTQESLSHSPGK	0.0138
variant canine IgG-B Fc polypeptide L(24)S (protein, not shown: small tags and cut ends) CPAPEMLGGPSVFIFPPKPKDTLSIARTPEVTCVVVDLDPEDPEVQISWFVDGKQMQTAKTQPREEQFNGTYRVVSVLPIGHQDWLKGKQFTCKVNNKALPSPIERTISKARGQAHQPSVYVLPPSREELSKNTVSLTCLIKDFFPPDIDVEWQSNGQQEPESKYRTTPPQLDEDGSYFLYSKLSVDKSRWQRGDTFICAVMHEALHNHYTQESLSHSPGK	0.241

Shifting focus to the binder that follows.
Input: I am curious: what koff value has been reported for variant canine IgG-B Fc polypeptide L(24)M (protein, not shown: small tags and cut ends) CPAPEMLGGPSVFIFPPKPKDTLMIARTPEVTCVVVDLDPEDPEVQISWFVDGKQMQTAKTQPREEQFNGTYRVVSVLPIGHQDWLKGKQFTCKVNNKALPSPIERTISKARGQAHQPSVYVLPPSREELSKNTVSLTCLIKDFFPPDIDVEWQSNGQQEPESKYRTTPPQLDEDGSYFLYSKLSVDKSRWQRGDTFICAVMHEALHNHYTQESLSHSPGK ?
Output: 0.126
